system: T1, Human TFPI (tissue factor pathway inhibitor) (human, UniProt P10646 29-304, limits assumed)
T1 construct: Coated at 1 ug/ml on Maxisorb plates for the ELISA; For the Biacore work the human TFPI came from American Diagnostica
T1 sequence (looked up): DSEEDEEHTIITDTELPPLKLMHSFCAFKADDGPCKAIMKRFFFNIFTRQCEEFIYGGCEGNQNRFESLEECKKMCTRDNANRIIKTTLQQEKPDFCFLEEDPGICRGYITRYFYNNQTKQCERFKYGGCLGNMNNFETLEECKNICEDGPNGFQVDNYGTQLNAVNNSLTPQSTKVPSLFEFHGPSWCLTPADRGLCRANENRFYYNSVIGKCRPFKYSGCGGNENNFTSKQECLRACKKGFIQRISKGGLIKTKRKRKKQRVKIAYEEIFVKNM
measurementNotes: ELISA on plate-coated human TFPI; Fab expression media bound, then 1 h at 37 C in PBS pH 7.0; amplex red
observedProperty: TFPI ELISA signal, pH 7.0
In your answer, state the number alone without any accompanying words.

Example cases with answers are listed next.
2A8-g200 Fab VH-Y102H (Fab, V domains shown, Member of the 2A8-g200 Fab histidine scanning library) VH: EVQLVESGGGLVQPGGSLRLSCAASGFTFSSYGMDWVRQAPGKGLEWVSSIRGSRGSTYYADSVKGRFTISRDNSKNTLYLQMNSLRAEDTAVYYCARLYRHWFDYWGQGTLVTVSS VL: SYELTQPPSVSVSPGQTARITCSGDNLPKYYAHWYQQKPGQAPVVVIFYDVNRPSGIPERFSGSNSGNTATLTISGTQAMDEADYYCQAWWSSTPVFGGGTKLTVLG = 3310
2A8-g200 Fab VL-Y49H (Fab, V domains shown, Member of the 2A8-g200 Fab histidine scanning library) VH: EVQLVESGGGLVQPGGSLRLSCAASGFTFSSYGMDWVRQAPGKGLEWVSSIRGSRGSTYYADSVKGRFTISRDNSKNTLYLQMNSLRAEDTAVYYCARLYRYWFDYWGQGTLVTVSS VL: SYELTQPPSVSVSPGQTARITCSGDNLPKYYAHWYQQKPGQAPVVVIFHDVNRPSGIPERFSGSNSGNTATLTISGTQAMDEADYYCQAWWSSTPVFGGGTKLTVLG = 2660
2A8-g200 Fab VH-S50H (Fab, V domains shown) VH: EVQLVESGGGLVQPGGSLRLSCAASGFTFSSYGMDWVRQAPGKGLEWVSHIRGSRGSTYYADSVKGRFTISRDNSKNTLYLQMNSLRAEDTAVYYCARLYRYWFDYWGQGTLVTVSS VL: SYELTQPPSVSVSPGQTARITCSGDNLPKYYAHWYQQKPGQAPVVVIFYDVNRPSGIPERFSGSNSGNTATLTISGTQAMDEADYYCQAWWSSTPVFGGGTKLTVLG = 2160
2A8-g200 Fab (wild type) (Fab, V domains shown, Fab format, expressed in E. coli; also called wt gA200Fab; wild type 2A8-g200 Fab) VH: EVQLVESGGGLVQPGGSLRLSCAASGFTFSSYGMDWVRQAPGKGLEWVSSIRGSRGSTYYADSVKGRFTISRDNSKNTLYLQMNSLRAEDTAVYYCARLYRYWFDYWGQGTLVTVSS VL: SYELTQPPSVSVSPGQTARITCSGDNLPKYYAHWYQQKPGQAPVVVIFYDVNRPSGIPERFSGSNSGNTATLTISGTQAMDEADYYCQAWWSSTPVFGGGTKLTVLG = 5250

Continue with the next binder.
## Task Fill in: TFPI ELISA signal, pH 7.0 of 2A8-g200 Fab VH-Y32H (Fab, V domains shown, Member of the 2A8-g200 Fab histidine scanning library) VH: EVQLVESGGGLVQPGGSLRLSCAASGFTFSSHGMDWVRQAPGKGLEWVSSIRGSRGSTYYADSVKGRFTISRDNSKNTLYLQMNSLRAEDTAVYYCARLYRYWFDYWGQGTLVTVSS VL: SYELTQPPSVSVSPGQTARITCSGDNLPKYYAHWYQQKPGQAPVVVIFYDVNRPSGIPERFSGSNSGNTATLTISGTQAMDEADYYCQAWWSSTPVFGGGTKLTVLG is ___
## Result 3560
